assay: Mouse oral single-dose pharmacokinetic study with Compound EB; type: in vivo; settings: male, mouse, plasma, po, 100 mg/kg, male mice, 100 mg/kg single oral gavage, bleed time 1 HR; read-out: Compound EB concentr. in plasma, individual animals
Reported endpoint: concentration at 1 h (µg/mL)
Reply numerically in µg/mL, unit not repeated.

Value of concentration at 1 h reported for the compound "Cc1cccc(C)c1COc1cccc(-c2nnn[nH]2)c1" is 210

* * *

assay: Rat pilot single-dose oral pharmacokinetic study with Compound EC; type: in vivo; conditions: male, Sprague-Dawley, rat, plasma; 100 mg/kg single oral gavage, 2 HR
Reported endpoint: concentration at 2 h

Value of concentration at 2 h reported for the compound Cc1cccc(C)c1COc1cccc(Cc2nnn[nH]2)c1 [Compound EC] is 61 µg/mL

* * *

assay: Mouse oral single-dose pharmacokinetic study with Compound EB; assay type: in vivo; conditions: male, mouse, plasma, po, 100 mg/kg, male mice, 100 mg/kg single oral gavage, bleed time 6 HR; read-out: Compound EB concentr. in plasma, individual animals
Reported endpoint: concentration at 6 h
Answer by giving the amount and then stating its unit.

Value of concentration at 6 h reported for the molecule "Cc1cccc(C)c1COc1cccc(-c2nnn[nH]2)c1" is 58.7 µg/mL

* * *

test: Rat pilot single-dose oral pharmacokinetic study with Compound EC; format: in vivo; details: male, Sprague-Dawley, rat, plasma; 100 mg/kg single oral gavage, 0.5 HR
Reported endpoint: concentration at 0.5 h (ng/mL)
Reply numerically in ng/mL, unit not repeated.

Value of concentration at 0.5 h reported for the compound Cc1cccc(C)c1COc1cccc(Cc2nnn[nH]2)c1 [Compound EC] is 10000

* * *

target: human URAT1 (Homo sapiens (Human), UniProt Q96S37); assay: URAT1 inhibition assay: [8-14C] urate uptake in hURAT1-HEK cells; conditions: 14C urate uptake in hURAT1-HEK cells
Sequence (Q96S37 whole entry): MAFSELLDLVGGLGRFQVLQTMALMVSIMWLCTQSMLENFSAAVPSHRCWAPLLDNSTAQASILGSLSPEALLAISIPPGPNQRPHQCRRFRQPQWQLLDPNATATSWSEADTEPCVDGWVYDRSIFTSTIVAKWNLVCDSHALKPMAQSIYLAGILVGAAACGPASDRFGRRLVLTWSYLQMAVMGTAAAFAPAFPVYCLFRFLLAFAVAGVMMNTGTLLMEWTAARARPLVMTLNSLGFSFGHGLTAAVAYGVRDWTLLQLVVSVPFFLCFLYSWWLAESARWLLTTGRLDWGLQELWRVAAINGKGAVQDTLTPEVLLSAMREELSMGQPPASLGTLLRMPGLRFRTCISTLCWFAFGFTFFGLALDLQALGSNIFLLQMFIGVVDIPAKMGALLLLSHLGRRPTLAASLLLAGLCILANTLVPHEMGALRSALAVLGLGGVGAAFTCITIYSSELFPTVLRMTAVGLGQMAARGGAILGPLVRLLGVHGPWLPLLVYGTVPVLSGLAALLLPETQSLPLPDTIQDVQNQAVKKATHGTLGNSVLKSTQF
Reported endpoint: pIC50
Quick note: pIC50 values are minus log10 of concentrations in mol/L.

These recorded examples may help you get a feel for the data.
- Input smiles: "COc1ccc(Cc2nnn[nH]2)cc1OCc1c(C)cccc1C"
  Recorded number: 6.60
- Input smiles: "Cc1ccc(Cc2nnn[nH]2)cc1OCc1c(C)cccc1C"
  Recorded number: 6.89
- Input smiles: "Cc1cccc(C)c1COc1cccc(Cc2nnn[nH]2)c1"
  Recorded number: 6.62

Value of pIC50 reported for the compound "Cc1cccc(C)c1COc1cccc(CCc2nnn[nH]2)c1" is 6.13

Value of pIC50 reported for the compound "Cc1cccc(C)c1COc1cccc(-c2nnn[nH]2)c1" is 6.03

* * *

Assay: Rat pilot single-dose oral pharmacokinetic study with Compound EG
Format: in vivo
Settings: male, Sprague-Dawley, rat, plasma; 100 mg/kg single oral gavage, 0.25 HR
Protocol: Rat Pilot Single-Dose Oral Pharmacokinetic Study with Compound EG Determination of the Plasma Profile of Compound EG Following Single Oral Gavage Administration to Male Rats. Test compound was suspended in 1% HPMC using a tissue homogenizer to minimize particles and maximize uniformity of the suspension and stored at 4° C. […] Following centrifugation, the plasma were harvested into a single tube for each animal at each time point and immediately frozen at −80° C. until analyzed using LC/MS-MS. […]
Reported endpoint: concentration at 0.25 h (ng/mL)
Reply numerically in ng/mL, unit not repeated.

Value of concentration at 0.25 h reported for the compound "Cc1ccc(Cc2nnn[nH]2)cc1OCc1c(C)cccc1C" is 7000
